Would you kindly list TGI for each of these compounds?
# Tested on: NCI/ADR-RES ovarian
# EXPERIMENT_NOTES: NCI tumour cell line growth inhibition, 48 h

TGI of CN(C)c1cccc2c1C(=O)C=CC21CCc2ccc(N(C)C)c3c(N(C)C)ccc1c23 (centres undefined) , assay on NCI/ADR-RES ovarian, is > 100 µM

Measured on NCI/ADR-RES ovarian, "COc1cccc(/C(C)=N/NC(=O)CSc2nc3ccccc3c(=O)n2CCc2ccc(S(N)(=O)=O)cc2)c1" has a documented TGI of > 100 µM

Param item: "O=S(=O)(Nc1ccc(F)c(Cl)c1)c1ccc(-c2cnc(C3CC3)o2)cc1" ; param system: NCI/ADR-RES ovarian; output TGI: 8.76 µM

Assay NCI/ADR-RES ovarian, sample "CC[C@H](C)C1=C(O)[N@+]2([O-])Oc3ccc(-c4c(O)c(O)c(-c5ccc(O)cc5)c(OC(C)=O)c4OC(C)=O)cc3O[C@]2([C@@H](C)CC)C(=O)N1O" , TGI read: > 50 µM

Summary line: "O=C(C[P+](c1ccccc1)(c1ccccc1)c1ccccc1)C[P+](c1ccccc1)(c1ccccc1)c1ccccc1" , NCI/ADR-RES ovarian, reported TGI = 11 µM

Per the reported NCI/ADR-RES ovarian data, "Cc1ccc(-c2nc([P+](c3ccccc3)(c3ccccc3)c3ccccc3)c(Nc3ccccc3)o2)cc1" has TGI of 2.58 µM

Recorded TGI for COC1CCC(=O)N1CN(C(C)=O)c1ccc(C)cc1 (centres undefined) on NCI/ADR-RES ovarian was > 100 µM

The recorded TGI with NCI/ADR-RES ovarian for CN1C(=O)CC2CCC(=O)N2c2cccnc21 (centres undefined) was > 100 µM

// returns TGI for "CCn1c(=O)c2nc(SC)sc2n(-c2ccccc2)c1=O" with NCI/ADR-RES ovarian; value = > 100 µM

With NCI/ADR-RES ovarian as the test system, "C=CCN(c1cc(OC)c2[nH]c(C(=O)OCC)c(C)c2c1[N+](=O)[O-])S(C)(=O)=O" showed TGI of 72.6 µM

Measured TGI (NCI/ADR-RES ovarian), entry "O=C(Nc1cc(Oc2cc(F)c(NC(=O)C3(C(=O)Nc4ccc(F)cc4)CC3)cc2F)ccn1)C1CC1" : 8.73 µM

Sample "COc1cc(/C=C/c2cc(/C=C/c3ccc(O)c(OC)c3)n(C(=O)Nc3ccc(Cl)cc3)n2)ccc1O" , system: NCI/ADR-RES ovarian. Its TGI is 3.68 µM

Case "Cc1cc(O)c(/C=N/C(=S)Nc2ccccc2)c(=O)o1" , NCI/ADR-RES ovarian, TGI recorded as > 100 µM

Entry C=CCCCCOC1C=CC(O)C(CO)O1 (centres undefined) , tested on NCI/ADR-RES ovarian, has a reported TGI of > 100 µM

Simply: "CSCCCNC(=O)c1csc(-c2csc(CCNC(=O)CNC(=O)CNC(=O)OC(C)(C)C)n2)n1" , NCI/ADR-RES ovarian, TGI = > 100 µM

Lab note: compound "Cc1cc(Cl)ccc1Nc1nc(C(F)(F)F)ccc1C(=O)N/N=C/c1ccccc1Cl" tested on NCI/ADR-RES ovarian; recorded TGI was 7.16 µM

// compound "O=C(Nc1nnc(-c2c(Cl)c(Cl)c(Cl)c(Cl)c2-c2nc3cc(C(=O)c4ccccc4)ccc3[nH]2)o1)c1ccc(Cl)cc1" , assay NCI/ADR-RES ovarian, TGI value: > 100 µM

Record CCC(O)c1ccc(N=Cc2ccccc2O)cc1 (centres undefined) ; system NCI/ADR-RES ovarian; TGI = > 100 µM

// TGI (NCI/ADR-RES ovarian) for "Cc1cccc(NC(=O)/C=C/c2ccc([N+](=O)[O-])cc2)c1" = > 59.3 µM
